Listing of recorded IC50 by entry.
- test.target: DNA (cytosine-5)-methyltransferase 1 (Homo sapiens, UniProt P26358)
- Sequence (P26358 whole entry): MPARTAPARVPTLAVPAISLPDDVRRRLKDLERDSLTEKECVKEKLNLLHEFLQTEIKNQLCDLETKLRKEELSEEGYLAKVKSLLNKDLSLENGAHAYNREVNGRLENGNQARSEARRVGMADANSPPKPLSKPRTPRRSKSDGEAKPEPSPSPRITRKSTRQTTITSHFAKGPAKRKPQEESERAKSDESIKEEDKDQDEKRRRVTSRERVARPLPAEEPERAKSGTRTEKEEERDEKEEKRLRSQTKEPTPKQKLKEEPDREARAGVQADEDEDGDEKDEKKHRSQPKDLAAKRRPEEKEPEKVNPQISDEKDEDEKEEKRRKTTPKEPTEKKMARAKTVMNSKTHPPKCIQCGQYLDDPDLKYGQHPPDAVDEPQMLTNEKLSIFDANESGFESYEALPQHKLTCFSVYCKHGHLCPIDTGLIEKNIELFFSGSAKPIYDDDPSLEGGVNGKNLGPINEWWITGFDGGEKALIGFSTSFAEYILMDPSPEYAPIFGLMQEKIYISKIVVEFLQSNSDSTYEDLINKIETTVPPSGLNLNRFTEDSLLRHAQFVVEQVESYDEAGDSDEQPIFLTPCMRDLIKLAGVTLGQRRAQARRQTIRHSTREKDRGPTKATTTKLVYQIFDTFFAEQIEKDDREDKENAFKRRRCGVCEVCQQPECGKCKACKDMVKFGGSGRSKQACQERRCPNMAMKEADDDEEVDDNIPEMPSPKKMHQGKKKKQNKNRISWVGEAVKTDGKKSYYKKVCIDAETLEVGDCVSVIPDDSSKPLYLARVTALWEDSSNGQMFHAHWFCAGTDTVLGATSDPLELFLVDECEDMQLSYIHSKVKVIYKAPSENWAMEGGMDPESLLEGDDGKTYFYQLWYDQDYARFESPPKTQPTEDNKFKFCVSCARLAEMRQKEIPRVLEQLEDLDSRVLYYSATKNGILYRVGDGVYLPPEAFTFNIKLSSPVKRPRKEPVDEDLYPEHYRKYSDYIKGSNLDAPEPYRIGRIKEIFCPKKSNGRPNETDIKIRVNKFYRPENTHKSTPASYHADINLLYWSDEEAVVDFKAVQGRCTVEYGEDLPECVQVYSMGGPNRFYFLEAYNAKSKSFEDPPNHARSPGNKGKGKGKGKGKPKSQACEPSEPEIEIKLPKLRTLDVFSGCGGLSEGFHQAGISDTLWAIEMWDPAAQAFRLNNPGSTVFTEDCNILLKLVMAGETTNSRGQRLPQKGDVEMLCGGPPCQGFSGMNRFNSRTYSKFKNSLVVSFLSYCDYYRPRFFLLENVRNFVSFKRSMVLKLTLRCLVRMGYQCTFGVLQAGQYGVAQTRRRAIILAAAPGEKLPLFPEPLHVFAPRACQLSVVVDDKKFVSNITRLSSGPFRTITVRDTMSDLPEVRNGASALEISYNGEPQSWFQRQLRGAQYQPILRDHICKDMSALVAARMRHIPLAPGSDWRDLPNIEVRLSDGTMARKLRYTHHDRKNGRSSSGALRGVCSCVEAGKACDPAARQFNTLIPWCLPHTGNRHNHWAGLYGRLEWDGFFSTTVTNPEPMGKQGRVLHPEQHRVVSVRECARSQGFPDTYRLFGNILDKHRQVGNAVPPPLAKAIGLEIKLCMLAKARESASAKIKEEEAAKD
- assay.details: Biochemical Activity Assay

# compound, IC50
rows = [
    ("CCc1c(C#N)c(SC(C(N)=O)c2ccccc2)nc(N2CCC(NCC3(C)CCC3)CC2)c1C#N (configuration not stated) [US10975056, Example 466]", "< 320 nM"),
]

# next compound below
Query: Report IC50 for CCc1c(C#N)c(SC(C(N)=O)c2ccccc2)nc(N2CCC(N3[C@H](C)CC[C@H]3C)CC2)c1C#N (some centres not stated) [US10975056, Example 472]
Response: < 320 nM

Every entry's value here was drawn from BindingDB's records for patent US10975056.
